# method description: physchem
# Type: physicochemical
readout label: solubility

Briefly, solubility measured for C[C@H](O)[C@H](O)[C@H]1CNc2nc(N)[nH]c(=O)c2N1 [BH4] : > 1000 mg/mL
